# procedure-details: Gastric Ulcerogenicity (UD)
# Format: in vivo, rat
# cond: rat, in vivo; fasted male Wistar rats, PO, six hours; read-out: UD50 (dose which produces a 50% occurrence of ulcers in rats)
value-type: TD50 at 6 h (mg/kg)
Field format: number, assumed mg/kg, no unit text.

Just so you know, measured TD50 at 6 h for Cc1ccc(Cl)c(Nc2ccccc2C(=O)O)c1Cl [Meclomen, reference compound] came out at 36

====

# target-desc: cyclooxygenase (Rattus norvegicus)
# Sequence (Q63921 27-602): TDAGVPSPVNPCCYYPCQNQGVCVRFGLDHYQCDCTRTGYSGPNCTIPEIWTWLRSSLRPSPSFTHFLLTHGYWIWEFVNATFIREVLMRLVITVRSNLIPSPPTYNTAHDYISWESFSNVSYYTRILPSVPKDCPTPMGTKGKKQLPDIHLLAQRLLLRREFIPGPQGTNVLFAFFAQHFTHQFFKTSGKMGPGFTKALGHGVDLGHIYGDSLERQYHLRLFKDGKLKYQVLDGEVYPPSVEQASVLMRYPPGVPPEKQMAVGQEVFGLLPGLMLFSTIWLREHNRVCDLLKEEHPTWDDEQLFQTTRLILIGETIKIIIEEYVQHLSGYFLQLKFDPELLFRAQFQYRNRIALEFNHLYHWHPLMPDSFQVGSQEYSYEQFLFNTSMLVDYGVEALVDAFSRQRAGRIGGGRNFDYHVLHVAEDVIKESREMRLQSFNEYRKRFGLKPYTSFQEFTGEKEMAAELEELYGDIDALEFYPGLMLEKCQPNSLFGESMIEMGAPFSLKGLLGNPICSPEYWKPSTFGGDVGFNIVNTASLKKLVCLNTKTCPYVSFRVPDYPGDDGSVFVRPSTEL
# procedure-details: ARBC whole cell cyclooxygenase assay (PGF2α formation in RBL-1 cells)
# cond: RBL-1 whole cells, A23187 5 μM; read-out: ARBC IC50 for PGF2α inhibition
value-type: IC50

# input-smiles, IC50
measured = [
    ("Cc1ccc(Cl)c(N2C(=O)C(=NO)c3ccccc32)c1Cl", "28 µM"),
]

Consider the record given below.
// IC50 value for "Cc1ccc(Cl)c(N2CN(O)C(=O)c3ccccc32)c1Cl" : 2.2 µM

====

The following compounds are shown together with reported IC50 values.
# target-desc: 5-lipoxygenase (Rattus norvegicus, UniProt P12527)
# Sequence (P12527 whole entry): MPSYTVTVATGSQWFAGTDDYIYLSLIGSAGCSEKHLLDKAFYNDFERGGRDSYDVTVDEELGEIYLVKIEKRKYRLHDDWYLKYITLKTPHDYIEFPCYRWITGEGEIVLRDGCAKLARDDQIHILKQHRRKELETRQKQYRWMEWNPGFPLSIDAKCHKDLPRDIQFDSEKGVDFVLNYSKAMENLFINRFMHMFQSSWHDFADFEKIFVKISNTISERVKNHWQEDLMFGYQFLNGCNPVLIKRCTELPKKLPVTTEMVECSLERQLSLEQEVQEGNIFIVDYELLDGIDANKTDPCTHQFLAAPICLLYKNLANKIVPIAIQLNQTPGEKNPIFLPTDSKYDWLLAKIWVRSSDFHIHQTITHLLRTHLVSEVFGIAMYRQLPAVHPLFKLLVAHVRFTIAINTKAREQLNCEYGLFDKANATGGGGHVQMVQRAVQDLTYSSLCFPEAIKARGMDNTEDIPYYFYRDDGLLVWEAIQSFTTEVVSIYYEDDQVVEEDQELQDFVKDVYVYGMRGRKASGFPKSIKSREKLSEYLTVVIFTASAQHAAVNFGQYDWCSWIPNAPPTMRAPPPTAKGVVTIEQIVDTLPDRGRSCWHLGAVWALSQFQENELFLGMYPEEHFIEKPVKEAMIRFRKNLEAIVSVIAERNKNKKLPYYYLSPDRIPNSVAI
# procedure-details: ARBL whole cell 5-lipoxygenase assay (LTB4 formation in RBL-1 cells)
# cond: RBL-1 whole cells, A23187 5 μM; read-out: ARBL IC50 for LTB4 inhibition
Give just the numeric value; µM need not be written.

Check out these entries, answers already filled in.
# compound, IC50, µM
records = [
    ("Cc1ccc(Cl)c(Nc2ccccc2C(=O)N(C)O)c1Cl", 1.5),
    ("Cc1cccc(Nc2ccccc2C(=O)NO)c1C", 1.8),
    ("Cc1ccc(Cl)c(N2C(=O)C(=NO)c3ccccc32)c1Cl", 6.5),
    ("Cc1ccc(Cl)c(Nc2ccccc2C(=O)O)c1Cl [Meclomen, reference compound]", 24),
    ("Cc1ccc(Cl)c(Nc2ccccc2C(=O)NO)c1Cl", 3.9),
    ("CONC(=O)c1ccccc1Nc1c(Cl)ccc(C)c1Cl", 16),
]

We next turn to a different compound, shown below.
// "Cc1ccc(Cl)c(N2CN(O)C(=O)c3ccccc32)c1Cl" : IC50 value = 3.2
